# targetOrSystem: human TLR7 (Homo sapiens (Human), UniProt Q9NYK1)
# Sequence (Q9NYK1 27-1049): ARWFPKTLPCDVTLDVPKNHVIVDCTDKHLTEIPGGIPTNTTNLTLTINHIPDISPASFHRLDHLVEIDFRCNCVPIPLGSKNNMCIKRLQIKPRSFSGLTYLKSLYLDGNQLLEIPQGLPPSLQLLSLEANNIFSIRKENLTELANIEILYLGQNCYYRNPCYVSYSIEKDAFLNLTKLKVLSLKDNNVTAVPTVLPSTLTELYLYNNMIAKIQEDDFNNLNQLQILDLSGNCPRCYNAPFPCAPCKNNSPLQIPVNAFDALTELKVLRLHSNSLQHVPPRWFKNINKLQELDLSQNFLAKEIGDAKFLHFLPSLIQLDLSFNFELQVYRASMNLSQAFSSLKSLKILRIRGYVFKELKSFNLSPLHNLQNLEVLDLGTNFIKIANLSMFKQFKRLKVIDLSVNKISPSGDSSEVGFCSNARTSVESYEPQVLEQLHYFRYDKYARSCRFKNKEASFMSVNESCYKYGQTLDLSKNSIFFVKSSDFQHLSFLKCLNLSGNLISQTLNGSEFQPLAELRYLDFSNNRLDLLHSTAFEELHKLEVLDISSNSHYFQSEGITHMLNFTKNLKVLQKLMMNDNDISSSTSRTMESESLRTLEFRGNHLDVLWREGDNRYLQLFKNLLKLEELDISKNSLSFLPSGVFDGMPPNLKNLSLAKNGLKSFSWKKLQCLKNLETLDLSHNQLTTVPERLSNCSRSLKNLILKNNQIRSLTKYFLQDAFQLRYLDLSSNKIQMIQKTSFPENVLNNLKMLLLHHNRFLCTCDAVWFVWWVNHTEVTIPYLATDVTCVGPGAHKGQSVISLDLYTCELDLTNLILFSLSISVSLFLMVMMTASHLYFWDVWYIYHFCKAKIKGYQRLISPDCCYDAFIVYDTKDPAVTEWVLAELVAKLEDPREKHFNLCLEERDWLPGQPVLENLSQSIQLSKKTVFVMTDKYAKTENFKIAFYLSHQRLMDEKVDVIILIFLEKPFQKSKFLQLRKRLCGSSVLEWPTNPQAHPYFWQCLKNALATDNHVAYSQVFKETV
# procedureDetails: TLR7 inhibition reporter assay (HEK-Blue SEAP)
# settings: HEK-Blue cells overexpressing human TLR7, gardiquimod 7.5 μM stimulation
pIC50: −log10 of the molar value.
measureName: pIC50

Previously resolved entries follow.
> print(dat)
                                   compound  measurename  quantitativereadout
1  Cc1cc(-c2[nH]c3cnc(N4CCC(N(C)CC(=O)N(C)C)CC4)c(F)c3c2C(C)C)cn2ncnc12        pIC50                 8.66
2  Cc1cc(-c2[nH]c3cnc(C4CCN(CC(F)(F)F)CC4)c(F)c3c2C(C)C)cn2ncnc12        pIC50                 7.44
3  CCN(C)C1CCC(c2cc3c(C(C)C)c(-c4cc(OC)c5ncnn5c4)[nH]c3cn2)C1 (stereo not drawn) [Example 248]        pIC50                 8.24
4  Cc1c(N2CCC(NCC3(C)COC3)CC2)ncc2[nH]c(-c3cc(C)c4ncnn4c3)c(C(C)C)c12        pIC50                 9.38
5  Cc1c(-c2[nH]c3cnc(C4CCC(NCC(C)(C)C)CC4)cc3c2C(C)C)cn2ncnc2c1C (stereo not drawn) [Example 337]        pIC50                 8.41

(a) COc1cc(-c2[nH]c3cnc(N4CCN(CCS(C)(=O)=O)C[C@H]4C)c(F)c3c2C(C)C)cn2ncnc12
(b) COc1cc(-c2[nH]c3cnc(N4CCN(CC5CC5)CC4)c(F)c3c2C(C)C)cn2ncnc12
(c) Cc1cc(-c2[nH]c3cnc(N4CCC(N5CCC5)CC4)c(F)c3c2C(C)C)cn2ncnc12
// query # rank_down: sort by pIC50, max first Give the order by naming the labels one after another as requested.
// result c, b, a

(A) Cc1cc(-c2[nH]c3cnc(C4CCN(C(C)C)CC4)c(F)c3c2C(C)C)cn2ncnc12
(B) Cc1c(-c2[nH]c3cnc(C4CCC(NC(C)C)CC4)c(F)c3c2C(C)C)cn2ncnc2c1C (stereo not drawn) [Example 85]
(C) COc1cc(-c2[nH]c3cnc(C4CCNCC4)cc3c2C(C)C)cn2ncnc12
(D) COCCN1CCC(c2ncc3[nH]c(-c4cc(C)nc(C)c4)c(C(C)C)c3c2F)CC1
// query # rank_down: sort by pIC50, max first Give the order by naming the labels one after another as requested.
// result A, B, C, D

(a) COc1cc(-c2[nH]c3cnc(N4CCN(CC5(C)COC5)CC4)c(F)c3c2C(C)C)cn2ncnc12
(b) CCN(C)C1CCN(c2ncc3[nH]c(-c4cc(C)c5ncnn5c4)c(C(C)C)c3c2C)CC1
// query Could you determine which record has the numerically smaller pIC50? Candidates: a and b Respond with the label that goes with your answer.
// result a

(A) Cc1c(-c2[nH]c3cnc(C4CCC(N5CC6(COC6)C5)CC4)c(C)c3c2C(C)C)cn2ncnc2c1C (stereo not drawn) [Example 57]
(B) Cc1c(-c2[nH]c3cnc(C4CCC(NC[C@@H](F)C(C)(C)O)CC4)c(F)c3c2C(C)C)cn2ncnc2c1C (stereo partly drawn) [Example 175]
(C) Cc1cc(-c2[nH]c3cnc(N4CCC(NC(C)C)CC4)c(F)c3c2C(C)C)cn2ncnc12
// query # rank_down: sort by pIC50, max first Give the order by naming the labels one after another as requested.
// result C, A, B
(C: 9.07, A: 8.31, B: 7.64)

(I) Cc1cc(-c2[nH]c3cnc(C4CCC(NCC(C)(C)O)CC4)c(F)c3c2C(C)C)cn2ncnc12 (stereo not drawn) [Example 164]
(II) COc1cc(-c2[nH]c3cnc(N4CCN(C(=O)CN(C)C)CC4)c(Cl)c3c2C(C)C)cn2ncnc12
(III) Cc1cc(-c2[nH]c3cnc(C4CCC(NC5COC5)CC4)c(F)c3c2C(C)C)cn2ncnc12 (stereo not drawn) [Example 80]
(IV) Cc1c(N2CCC(N(C)C(C)C)CC2)ncc2[nH]c(-c3cc(C)c4ncnn4c3)c(C(C)C)c12
(V) COc1cc(-c2[nH]c3cnc(N4CCC(NCC5(C)COC5)CC4)c(C)c3c2C(C)C)cn2ncnc12
// query # rank_down: sort by pIC50, max first Give the order by naming the labels one after another as requested.
// result III, IV, V, II, I
(III: 9.80, IV: 9.42, V: 9.21, II: 8.82, I: 8.21)

(P) COc1cc(-c2[nH]c3cnc(N4CCNCC4)cc3c2C(C)C)cn2ncnc12
(Q) COc1cc(-c2[nH]c3cnc(N4CCC(N(C)C5COC5)CC4)cc3c2C(C)C)cn2ncnc12
(R) Cc1c(-c2[nH]c3cnc(C4CCC(NC5CCOC5)CC4)cc3c2C(C)C)cn2ncnc2c1C (stereo not drawn) [Example 327]
// query # rank_down: sort by pIC50, max first Give the order by naming the labels one after another as requested.
// result P, Q, R
(P: 8.82, Q: 8.37, R: 8.15)

(a) COc1cc(-c2[nH]c3cnc(C4CCN(CCS(C)(=O)=O)CC4)c(C)c3c2C(C)C)cn2ncnc12
(b) Cc1c(-c2[nH]c3cnc(N4CCC(NC5CCOCC5)CC4)c(C)c3c2C(C)C)cn2ncnc2c1C
// query Could you determine which record has the numerically smaller pIC50? Candidates: a and b Respond with the label that goes with your answer.
// result a

(A) Cc1c(-c2[nH]c3cnc(C4CCN(C5COC5)CC4)cc3c2C(C)C)cn2ncnc2c1C
(B) CNC(=O)CN1CCN(c2ncc3[nH]c(-c4cc(OC)c5ncnn5c4)c(C(C)C)c3c2C)CC1
// query Lab note: record which item had the higher pIC50, A or B . Respond with the label that goes with your answer.
// result A
(A: 8.33, B: 8.00)

----------
# targetOrSystem: human TLR7 (Homo sapiens (Human))
# procedureDetails: TLR7 inhibition reporter assay (HEK-Blue SEAP)
# Type: cell-based
# settings: HEK-Blue cells overexpressing human TLR7, gardiquimod 7.5 μM stimulation
measureName: IC50 (nM)

(P) Cc1cc(-c2[nH]c3cnc(C4CCC(N5CCC5)CC4)c(F)c3c2C(C)C)cn2ncnc12 (stereo not shown) [Example 262]
(Q) COc1cc(-c2[nH]c3cnc(C4CCC(NC5COC5)CC4)c(C)c3c2C(C)C)cn2ncnc12 (stereo not shown) [Example 243]
(R) COCCN1CCN(c2ncc3[nH]c(-c4cc(OC)c5ncnn5c4)c(C(C)C)c3c2C)CC1
(S) Cc1c(-c2[nH]c3cnc(C4CCN(C(=O)CN(C)C)CC4)cc3c2C(C)C)cn2ncnc2c1C
(T) Cc1c(-c2[nH]c3cnc(N4CC5(CN(CC6(C)COC6)C5)C4)c(F)c3c2C(C)C)cn2ncnc2c1C
// query Arrange the above in rising order of IC50. Give the order by naming the labels one after another as requested.
// result Q, P, R, S, T

----------
# targetOrSystem: human TLR9 (Homo sapiens (Human))
# Sequence (Q9NR96 26-1032): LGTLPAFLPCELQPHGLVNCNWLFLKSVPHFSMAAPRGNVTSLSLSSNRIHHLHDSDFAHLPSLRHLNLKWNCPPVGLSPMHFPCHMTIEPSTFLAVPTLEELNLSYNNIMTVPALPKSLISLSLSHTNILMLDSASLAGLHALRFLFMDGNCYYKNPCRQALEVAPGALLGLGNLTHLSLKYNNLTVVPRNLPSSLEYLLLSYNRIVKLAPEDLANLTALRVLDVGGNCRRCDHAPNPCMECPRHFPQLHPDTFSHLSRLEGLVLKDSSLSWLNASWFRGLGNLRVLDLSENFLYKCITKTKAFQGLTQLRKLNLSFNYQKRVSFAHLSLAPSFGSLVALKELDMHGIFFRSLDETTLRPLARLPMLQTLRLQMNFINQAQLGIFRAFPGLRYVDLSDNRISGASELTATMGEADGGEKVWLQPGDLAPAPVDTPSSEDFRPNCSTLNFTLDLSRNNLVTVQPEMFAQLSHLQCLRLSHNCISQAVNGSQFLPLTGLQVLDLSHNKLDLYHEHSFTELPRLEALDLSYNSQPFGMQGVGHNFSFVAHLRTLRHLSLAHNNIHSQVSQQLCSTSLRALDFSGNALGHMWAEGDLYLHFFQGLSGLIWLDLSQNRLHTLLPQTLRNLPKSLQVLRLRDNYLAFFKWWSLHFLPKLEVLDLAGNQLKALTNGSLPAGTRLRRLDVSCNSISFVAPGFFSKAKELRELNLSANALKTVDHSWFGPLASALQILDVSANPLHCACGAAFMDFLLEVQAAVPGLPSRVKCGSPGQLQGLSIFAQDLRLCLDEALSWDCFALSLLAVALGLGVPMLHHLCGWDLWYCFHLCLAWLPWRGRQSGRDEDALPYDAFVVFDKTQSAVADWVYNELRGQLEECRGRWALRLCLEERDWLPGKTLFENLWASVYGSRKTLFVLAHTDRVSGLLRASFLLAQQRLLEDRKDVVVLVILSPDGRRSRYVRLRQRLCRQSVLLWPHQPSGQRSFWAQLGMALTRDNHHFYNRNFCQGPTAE
# procedureDetails: TLR9 inhibition reporter assay (HEK-Blue SEAP)
# settings: read-out: TLR9 IC50; HEK-Blue cells overexpressing human TLR9, ODN2006 5 nM stimulation, SEAP reporter
pIC50: −log10 of the molar value.
measureName: pIC50

Previously resolved entries follow.
> print(dat)
                                   compound  measurename  quantitativereadout
1  COc1cc(-c2[nH]c3cnc(C4CCC(N5CCC5)CC4)cc3c2C(C)C)cn2ncnc12 (stereo not shown) [Example 332]        pIC50                 6.81
2  Cc1cc(-c2[nH]c3cnc(C4CCC(N5CC6(COC6)C5)CC4)c(F)c3c2C(C)C)cn2ncnc12 (stereo not shown) [Example 133]        pIC50                 5.87
3  COc1cc(-c2[nH]c3cnc(C4CCN(CC(=O)N(C)C)CC4)c(F)c3c2C(C)C)cn2ncnc12        pIC50                 5.82

(I) Cc1cc(-c2[nH]c3cnc(N4CCC(N(C)CC(C)(C)C)CC4)c(F)c3c2C(C)C)cn2ncnc12
(II) COCCN1CCN(c2ncc3[nH]c(-c4cn5ncnc5c(C)c4C)c(C(C)C)c3c2F)CC1
(III) COc1cc(-c2[nH]c3cnc(N4CCC(NC(=O)CN(C)C)CC4)cc3c2C(C)C)cn2ncnc12
// query # rank_down: sort by pIC50, max first Give the order by naming the labels one after another as requested.
// result III, I, II
(III: 6.59, I: 5.68, II: 4.75)

----------
# targetOrSystem: UniProt:Q9NR96
# procedureDetails: TLR9 inhibition reporter assay (HEK-Blue SEAP);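 also: SEAP driven by IFN-β minimal promoter carrying five NF-κB and AP-1 sites, 22 h at 37 °C, compounds 0.05 nM–50 µM, inhibition scaled between agonist-plus-DMSO and reference-inhibitor wells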
# settings: read-out: TLR9 IC50; HEK-Blue cells overexpressing human TLR9, ODN2006 5 nM stimulation, SEAP reporter
measureName: IC50 (µM)

Previously resolved entries follow.
> print(dat)
                                   molecule  measurename  unitssymbol  quantitativereadout
1  Cc1c(-c2[nH]c3cnc(C4CCC(NCC(F)F)CC4)cc3c2C(C)C)cn2ncnc2c1C (stereo not shown) [Example 350]         IC50           µM                 1.08
2  COc1cc(-c2[nH]c3cnc(C4CCN(CC(=O)N(C)C)CC4)cc3c2C(C)C)cn2ncnc12 [Example 298]         IC50           µM                0.459
3  CNC(=O)CN1CCC(c2ncc3[nH]c(-c4cc(OC)c5ncnn5c4)c(C(C)C)c3c2F)CC1 [Example 20]         IC50           µM                 6.55
4  COc1cc(-c2[nH]c3cnc(C4CCC(N5CC(OC)C5)CC4)c(C)c3c2C(C)C)cn2ncnc12 (stereo not shown) [Example 62]         IC50           µM                0.417
5  Cc1c(-c2[nH]c3cnc(N4CCC(NC(C)C)CC4)c(F)c3c2C(C)C)cn2ncnc2c1C [Example 166]         IC50           µM                 3.34

(1) COc1cc(-c2[nH]c3cnc(C4CCC(N5CC6(COC6)C5)CC4)c(C)c3c2C(C)C)cn2ncnc12 (stereo not shown) [Example 245]
(2) COc1cc(-c2[nH]c3cnc(N4CC5(C4)CN(C4CCC4)C5)c(F)c3c2C(C)C)cn2ncnc12 [Example 381]
// query Lab note: record which item had the higher IC50, 1 or 2 . Respond with the label that goes with your answer.
// result 2
